tested on: A549; experiment: Cytotoxicity against human A549 cells after 72 hrs by CCK8 assay; format: functional, cell-based; settings: A549, 72 h
Listing of entries alongside the reported IC50.
readout: IC50 (µM)

CCC(C)C(=O)O[C@@]12[C@H](O)[C@@H](C)[C@@]3(O)[C@H]([C@@H]1C2(C)C)[C@@H](O)C(CO)=C[C@]1(O)C(=O)C(C)=C[C@@H]31 (stereo not given in full) | 8.86
C/C=C(\C)C(=O)O[C@@H]1[C@@H](C)[C@]2(O)[C@@H]3C=C(C)C(=O)[C@@H]3CC(CO)=C[C@H]2[C@@H]2C(C)(C)[C@]12OC(C)=O | 8.5
CCC(C)C(=O)O[C@@]12[C@H](O)[C@@H](C)[C@@]3(O)[C@@H](C(=O)C(CO)=C[C@]4(O)C(=O)C(C)=C[C@@H]34)[C@@H]1C2(C)C (stereo not given in full) | 6.33
CC1=C[C@H]2[C@@]3(O)[C@H](C)[C@@H](O)[C@]4(O)[C@H]([C@@H]3C=C(CO)C[C@]2(O)C1=O)C4(C)C [PHORBOL] | 15.3
C/C=C(\C)C(=O)O[C@@H]1[C@@H](C)[C@@]2(O)[C@@H](C(=O)C(CO)=C[C@]3(O)C(=O)C(C)=C[C@@H]23)[C@@H]2C(C)(C)[C@]12OC(=O)C(C)C | 3.11
